Cited source: BigSolDB 2.1

Details: in diethyl ether, 296.25 K
MEASURED_QUANTITY: solubility (mole fraction)
One number for each entry.

Ask: So what's the measured solubility (mole fraction) for this one? `c1ccc(OP2(Oc3ccccc3)=NP(Oc3ccccc3)(Oc3ccccc3)=NP(Oc3ccccc3)(Oc3ccccc3)=N2)cc1`
Result: 0.0122

* * *

Details: in n-heptane, 333.15 K
MEASURED_QUANTITY: solubility (mole fraction)
Answers are plain numbers.

Ask: So what's the measured solubility (mole fraction) for this one? `c1ccc(OP2(Oc3ccccc3)=NP(Oc3ccccc3)(Oc3ccccc3)=NP(Oc3ccccc3)(Oc3ccccc3)=N2)cc1`
Result: 0.0075

* * *

Details: in toluene, 293.25 K
MEASURED_QUANTITY: solubility (mole fraction)
Give bare numbers.

Ask: So what's the measured solubility (mole fraction) for this one? `CP(=O)(O)c1ccccc1`
Result: 0.12
